Test system: RARa:RXR (NR concentration 270 nM, RXRa partner concentration 90 nM)
Assay: PBM binding z-score (relative to random genomic background probes); higher = stronger binding; sequences stand for … in GC…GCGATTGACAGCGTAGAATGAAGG

[
  {
    "residues": "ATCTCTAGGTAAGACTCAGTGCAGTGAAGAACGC",
    "PBM binding z-score": 0.223
  },
  {
    "residues": "TTACCAAGGTGAGCTGAGGTCGCTGATCCAACTC",
    "PBM binding z-score": 1.5
  },
  {
    "residues": "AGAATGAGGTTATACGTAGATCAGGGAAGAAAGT",
    "PBM binding z-score": 1.82
  },
  {
    "residues": "CGAACTAGGTCAAGGACCGTGAATCTCCGCACGC",
    "PBM binding z-score": 1.63
  },
  {
    "residues": "CATTACGGGTCAAGGTTATAGCACGGGTGGTACG",
    "PBM binding z-score": 4.69
  },
  {
    "residues": "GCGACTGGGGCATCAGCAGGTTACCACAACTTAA",
    "PBM binding z-score": 0.565
  },
  {
    "residues": "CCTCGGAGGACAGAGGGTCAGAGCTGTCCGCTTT",
    "PBM binding z-score": 1.14
  },
  {
    "residues": "CAAACTAGGTCACGAAAGGTTAAAGTCGAATGAC",
    "PBM binding z-score": 5.4
  },
  {
    "residues": "CCTACTTGGCCAAAAAGGTCATTGATGCCGATAA",
    "PBM binding z-score": 5.78
  },
  {
    "residues": "GCTAGTTGTTCAGTAAAAGGTCACACACCGGTCG",
    "PBM binding z-score": 5.29
  },
  {
    "residues": "ACTAGCAGGCCAAGTTAGGGTCACTCAAACAAAG",
    "PBM binding z-score": 3.73
  },
  {
    "residues": "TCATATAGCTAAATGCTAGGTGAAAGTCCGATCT",
    "PBM binding z-score": 0.514
  },
  {
    "residues": "CCAGACAGGTGAGAAGATAACTCAGCCTCGATTA",
    "PBM binding z-score": 0.117
  },
  {
    "residues": "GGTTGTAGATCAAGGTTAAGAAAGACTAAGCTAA",
    "PBM binding z-score": 1.16
  },
  {
    "residues": "CGAACTAGGTCATCCAGGACAGTGGATACATTGA",
    "PBM binding z-score": 2.52
  },
  {
    "residues": "CCTACTGGGCCAAGGTCATGGATCAGTCAAAGCA",
    "PBM binding z-score": 3.81
  },
  {
    "residues": "AGTCAAAGTTCATCTAGGTAACGTAAGATATGCT",
    "PBM binding z-score": 3.72
  },
  {
    "residues": "AATACAGGGTCATCGTAGGCCACAGTACGCACAG",
    "PBM binding z-score": 5.47
  },
  {
    "residues": "CAAACTAGGTCACAGAGGTCAAAATCCGTGCGTA",
    "PBM binding z-score": 6.58
  },
  {
    "residues": "CTATCAAGGTGAACAAGGTCGTTGATTACTATTC",
    "PBM binding z-score": 2.38
  },
  {
    "residues": "CCTAGCAGGCCAGGGTCACTCATGCATTTCGCTT",
    "PBM binding z-score": 2.67
  },
  {
    "residues": "CCTTACGGGTCAAGGTTATTGCACGGGTGGTACG",
    "PBM binding z-score": 4.2
  },
  {
    "residues": "TCTCGGAGGACACGAAGTTCAGAGCTTTCCAGAG",
    "PBM binding z-score": 0.555
  },
  {
    "residues": "GGAAGGAGGGCATTCGAGTTGATAGCATGGCGAT",
    "PBM binding z-score": 0.52
  },
  {
    "residues": "GCAGACAGGTGAAACGCAGGTAACTCACGGTGGC",
    "PBM binding z-score": 0.0228
  },
  {
    "residues": "CGTTACGGGTCACTGACAGGTTATAGCATTTGGA",
    "PBM binding z-score": 4.61
  },
  {
    "residues": "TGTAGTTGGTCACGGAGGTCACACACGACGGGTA",
    "PBM binding z-score": 4.35
  },
  {
    "residues": "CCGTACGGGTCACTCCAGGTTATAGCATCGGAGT",
    "PBM binding z-score": 3.89
  },
  {
    "residues": "CGAACTAGGTCATCCACGACAGTGAATACATTGA",
    "PBM binding z-score": 2.59
  },
  {
    "residues": "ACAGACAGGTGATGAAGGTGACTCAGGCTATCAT",
    "PBM binding z-score": 0.48
  },
  {
    "residues": "TCTGCTAGGTCAGTTGGTCATCTAACGAGCTGCC",
    "PBM binding z-score": 0.721
  }
]
